Entry source: patent US7998940B2

Give Screen- Human/No Protein for every item shown.
measured.on: human vWF A1 domain (SEQ ID NO 5) (Homo sapiens, UniProt P04275, T1381A)
Sequence (P04275 with tags, fused parts or gaps T1381A): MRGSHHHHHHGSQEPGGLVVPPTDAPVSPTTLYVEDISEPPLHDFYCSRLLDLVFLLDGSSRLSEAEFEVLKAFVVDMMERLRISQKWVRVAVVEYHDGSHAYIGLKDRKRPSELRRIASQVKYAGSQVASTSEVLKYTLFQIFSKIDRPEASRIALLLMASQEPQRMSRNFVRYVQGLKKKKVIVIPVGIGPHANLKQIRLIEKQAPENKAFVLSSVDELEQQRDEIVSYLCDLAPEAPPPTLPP
protocol.summary: 3-point dot blot screen, human vWF A1 domain
Assay type: binding
condition.description: DNA SELEX 1 aptamers; 100 nM human vWF A1 domain; ratio of fraction bound with target to without
One number for each entry.

Examples from the recorded data:
molecule	Screen- Human/No Protein
AMX200.D11: DNA SELEX 1 aptamer clone (nucleic acid, DNA, backbone not given here, DNA SELEX 1 aptamer clone) DNA: CTACCTACGATCTGACTAGCGGAATAAGAATGCTGATGGATTGCTCAGGTCTGCTGGCTGCTTACTCTCATGTAGTTCC	3.34
AMX199.F1: DNA SELEX 1 aptamer clone (nucleic acid, DNA, backbone not given here, DNA SELEX 1 aptamer clone) DNA: CTACCTACGATCTGACTAGCGAAACACTAGGTTGGTTAGGATTGGTGTGTTCCCGCTATGCTTACTCTCATGTAGTTCC	1.32
AMX200.A11: DNA SELEX 1 aptamer clone (nucleic acid, DNA, backbone not given here, DNA SELEX 1 aptamer clone) DNA: CTACCTACGATCTGACTAGCTGAGTAGTTAGTAACTTTTTATTATGGTTTGGTGGGTCTGGCTTACTCTCATGTAGTTCC	1.49

Moving on to the next molecule.
Query: Which Screen- Human/No Protein is reported for this molecule? AMX200.G11: DNA SELEX 1 aptamer clone (nucleic acid, DNA, backbone not given here, DNA SELEX 1 aptamer clone) DNA: CTACCTACGATCTGACTAGCGGAACGAGAATGCTGATGGATTGCTCAGGTCTGCTGGCTGCTTACTCTCATGTAGTTCC
Reply: 1.73
